- tested-system: human GcgR (Homo sapiens)
- Sequence (P47871 26-477): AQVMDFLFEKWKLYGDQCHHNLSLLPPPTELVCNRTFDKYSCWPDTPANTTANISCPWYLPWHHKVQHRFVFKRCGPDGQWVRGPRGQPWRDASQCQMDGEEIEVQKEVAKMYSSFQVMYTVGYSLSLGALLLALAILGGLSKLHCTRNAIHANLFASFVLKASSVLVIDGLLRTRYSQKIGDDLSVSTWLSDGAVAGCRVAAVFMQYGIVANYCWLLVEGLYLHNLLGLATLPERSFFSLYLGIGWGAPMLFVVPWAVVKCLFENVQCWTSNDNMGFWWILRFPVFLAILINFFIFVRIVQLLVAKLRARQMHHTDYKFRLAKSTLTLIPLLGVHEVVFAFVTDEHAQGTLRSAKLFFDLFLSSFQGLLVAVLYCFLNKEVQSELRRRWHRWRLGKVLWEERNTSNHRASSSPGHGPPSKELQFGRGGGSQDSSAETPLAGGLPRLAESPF
- assay-text: Functional cAMP activity in the presence of 1% HSA
- Assay type: cell-based
- condition-label: HEK-293 clonal cell line, 1% HSA, geometric mean of relative EC50; read-out: cAMP Rel EC50, hGcgR
Starred links: 1 amine or outer side, 2 acyl side, 3 side chain; linkers in the order of their positions; H or OH if unused. Non-standard residues stand in square brackets, D forms with d. Groups on a side chain read outwards from the residue. *: point of attachment. C18 diacid = O=C(O)CCCCCCCCCCCCCCCCC(=O)*; αMePhe(2-F) = C[C@](N)(Cc1ccccc1F)C(=O)O; γGlu = O=C(O)[C@H](CCC(=O)[*:2])N[*:1]; 4Pal = N[C@@H](Cc1ccncc1)C(=O)O; αMeL = CC(C)C[C@](C)(N)C(=O)O; Orn = NCCC[C@H](N)C(=O)O; Aib = CC(C)(N)C(=O)O
I'd appreciate it if you could supply pEC50 values for the items below.
Numbers only, as −log10 of the molar value.

- H-Y[Aib]QGT[αMePhe(2-F)]TSD[4Pal]SI[αMeL]LDKK([γGlu-γGlu-C18 diacid])AQ[Aib][Orn]FIEYLSEGGPSSGEPPPSGSEE-NH2 [Example 637]: 6.01
- H-Y[Aib]QGT[αMePhe(2-F)]TSD[4Pal]SI[αMeL]LDKK([γGlu-γGlu-C18 diacid])AQ[Aib]AFIEYLQEGGPSSGEPPPSGSEE-NH2 [Example 634]: 6.01

I'm hoping you can list pEC50 for every substance here, please.
1. H-Y[Aib]QGT[αMePhe(2-F)]TSD[4Pal]SI[αMeL]LDKK([γGlu-γGlu-C18 diacid])AQ[Aib]AFIEYLTEGGPSSGEPPPSGSEE-NH2 [Example 633]
2. H-Y[Aib]QGT[αMePhe(2-F)]TSD[4Pal]SI[αMeL]LDKK([γGlu-γGlu-C18 diacid])AQ[Aib]AFIEYLEEGGPSSGEPPPSGSEE-NH2 [Example 630]
3. H-Y[Aib]QGT[αMePhe(2-F)]TSD[4Pal]SI[αMeL]LDKK([γGlu-γGlu-C18 diacid])AQ[Aib][Orn]FIEYLAEGGPSSGEPPPSGSEE-NH2 [Example 636]

1: 5.82; 2: 6.06; 3: 6.03
